These entries and their values trace back to PubChem BioAssay AID1159580.

assay: chemical genetic growth profiling, strain panel (AID 1159580);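 also: tested at 20 µM; growth read once vehicle control cultures reached saturation at 30 °C; 1 = growth at the plate median or of vehicle wells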
measurement_parameters: S. cerevisiae deletion strains, growth OD, locus YDR335W, strain msn5, hits give low values
The campaign covered roughly 5,500 compounds. About 2,000 (36%) were called active. Inconclusive results (about 18%) are left out. Some of the results follow.
Threshold 1. normalized growth below it: TRUE. normalized growth at it or above: FALSE.

Here's what some known entries look like.
INSERT INTO results (molecule, qualitative_label) VALUES
  ('C[C@]12CCC(=O)C=C1C=CC1C2CC[C@@]2(C)C1CC[C@@]2(O)CCC(=O)O (some centres undefined)', 'FALSE'),
  ('O=C(NC(=O)c1ccccc1Cl)Nc1ccc(OC(F)(F)F)cc1', 'FALSE'),
  ('CCCCCCCCCCC[C@@H](C[C@H]1OC(=O)[C@H]1CCCCCC)OC(=O)[C@@H](CC(C)C)NC=O', 'FALSE'),
  ('O=c1cccc2ccc(O)c(O)c2c1O', 'TRUE');

Here is another molecule to look at.
QUERY: Would you kindly verify if normalized growth of COC(=O)C1=COC(OC2OC(CO)C(O)C(O)C2O)C2C(C)CC(=O)C12 (centres undefined) is strictly less than 1?
RESULT: FALSE

---

assay: chemical genetic growth profiling, strain panel (AID 1159580);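 also: tested at 20 µM; growth read once vehicle control cultures reached saturation at 30 °C; 1 = growth at the plate median or of vehicle wells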
measurement_parameters: S. cerevisiae deletion strains, growth OD, locus YBR279W, strain paf1
Out of some 5,500 compounds screened, about 2,000 (36%) were called active. Roughly 18% stayed inconclusive and do not appear here. No stated cut-off is given here; in the data, active means normalized growth mostly below about 0.91 (no sharp cut-off); inconclusive means no clear call, values can overlap the other calls; inactive means mostly above about 0.92. The list shows a part of the results.
Output constraint: value belongs to active, inactive

Recorded results for 5 compounds are shown here.
INSERT INTO measurements (compound, qualitative_label) VALUES
  ('C=C[C@@](C)(O)CCC1C(=C)C[C@H](O)C2C(C)(C)CCCC12C (some centres undefined)', 'inactive'),
  ('C=CCc1ccc(OC)cc1', 'inactive'),
  ('COc1ccc(-c2coc3cc(O)ccc3c2=O)cc1', 'inactive'),
  ('Cc1ccc(S(=O)(=O)NC(=O)NN2CCCCCC2)cc1', 'inactive'),
  ('O=C1C(Cl)=C(Cl)C(=O)C(Cl)=C1Cl', 'active');

QUERY: Fill in: this test's call for CN1C2C[C@H](OC(=O)[C@H](CO)c3ccccc3)C[C@H]1[C@@H](O)C2 is ___
RESULT: inactive

QUERY: Outcome? COc1ccc(CN(CCN(C)C)c2ccccn2)cc1
RESULT: inactive

QUERY: # outcome recorded in this test, key = COC(=O)/C=C/C(C)=C/C=C/C(C)=C/C=C/C=C(C)/C=C/C=C(C)/C=C/C(=O)O
RESULT: inactive

QUERY: How did this test come out for C[C@]12CCC(=O)C=C1C=CC1C2CC[C@@]2(C)C1CC[C@@]21CCC(=O)O1 (some centres undefined) ?
RESULT: inactive

QUERY: Call for entry NS(=O)(=O)c1cc2c(cc1Cl)NC=NS2(=O)=O :
RESULT: inactive

QUERY: Name the outcome recorded for C=CC[C@]1(O)CCC2C3CCC4=CC(=O)CCC4=C3C=C[C@@]21C (some centres undefined) in the assay.
RESULT: inactive

QUERY: For Cc1ccc(C(=O)Nc2ccc(S(=O)(=O)O)c3cc(S(=O)(=O)O)cc(S(=O)(=O)O)c23)cc1NC(=O)c1cccc(NC(=O)Nc2cccc(C(=O)Nc3cc(C(=O)Nc4ccc(S(=O)(=O)O)c5cc(S(=O)(=O)O)cc(S(=O)(=O)O)c45)ccc3C)c2)c1 , which call appears in the assay record?
RESULT: inactive

QUERY: Which outcome did this test record for the compound CN1C2CCC1CC(OC(c1ccccc1)c1ccccc1)C2 (centres undefined) ?
RESULT: inactive

QUERY: What classification did C=C[C@@](C)(O)CCC1C(=C)C[C@H](OC(C)=O)C2C(C)(C)CCCC12C (some centres undefined) end up with in this test?
RESULT: inactive

QUERY: Outcome logged for CCCCNC(=O)NS(=O)(=O)c1ccc(C)cc1 in this assay:
RESULT: inactive

QUERY: Assay result, entry CN1C2CCC1CC(OC(c1ccccc1)c1ccccc1N)C2 (centres undefined) — outcome?
RESULT: inactive

QUERY: Lab log entry: COC(=O)C[C@H]1C2(C)CC34OC5(C)O[C@@]6([C@H](OC)C(OC(=O)C(C)C)[C@]7(C)C(/C(=C(/OC)C(C)C)C(=O)O[C@H]7c7ccoc7)[C@@]6(O5)[C@H](OC)[C@@]3(OC)C2OC(C)=O)[C@]14C (some centres undefined) — outcome as called in the assay?
RESULT: inactive

QUERY: State the result this test recorded for CN(C)CCN(Cc1ccccc1)c1ccccn1 .
RESULT: inactive

QUERY: Called result for CC[C@@H](C(=O)C(C)[C@@H](O)[C@H](C)CCc1ccc(C)c(O)c1C(=O)O)C1OC(CC)(C2CC[C@](O)(CC)[C@H](C)O2)C[C@@H]1C (some centres undefined)
RESULT: inactive

QUERY: Hi, do you know how COC(=O)[C@@H]1OC(=O)C2OC23[C@@]1(C)CCC1[C@]2(C)C(C[C@H](O)[C@]13C)C(C)(C)[C@H](OC(C)=O)C[C@@H]2OC(C)=O (some centres undefined) came out in this test?
RESULT: inactive

QUERY: Please share the test call associated with c1ccc2c(c1)sc1ccccc12 .
RESULT: inactive

QUERY: Test call, this compound: C=CCc1ccc(O)c(OC)c1
RESULT: inactive

QUERY: Any idea what this test logged for O=C(NC(=O)c1ccccc1Cl)Nc1ccc(OC(F)(F)F)cc1 ?
RESULT: inactive

QUERY: State the result this test recorded for CC(C)NCC(O)COc1cccc2[nH]ccc12 (centres undefined) .
RESULT: inactive

QUERY: Per the assay record, what outcome was assigned to C[C@]12CCC(=O)C=C1C=CC1C2CC[C@@]2(C)C1CC[C@@]2(O)CCC(=O)O (some centres undefined) ?
RESULT: inactive

QUERY: Could you please tell me the result logged for COC(=O)C[C@H]1C2(C)CC34OC5(C)O[C@@]6([C@H](OC(C)=O)C(OC(C)=O)[C@]7(C)C(/C(=C(/O)C(C)C)C(=O)O[C@H]7c7ccoc7)[C@@]6(O5)[C@H](OC(C)=O)[C@@]3(O)C2OC(=O)C(C)C)[C@]14C (some centres undefined) in this assay?
RESULT: inactive

QUERY: Returns: the outcome recorded for C[C@@H]1CC(Cl)CC[C@H]1C(=O)OC(C)(C)C (some centres undefined) in this assay.
RESULT: inactive

QUERY: How was CC1(O)CC2C(CC1O)C2(C)C (centres undefined) classified in this test?
RESULT: inactive

QUERY: # outcome recorded in this test, key = COc1ccc(-c2coc3cc(O)ccc3c2=O)c(OC)c1
RESULT: inactive

---

assay: chemical genetic growth profiling, strain panel (AID 1159580);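 also: tested at 20 µM; growth read once vehicle control cultures reached saturation at 30 °C; 1 = growth at the plate median or of vehicle wells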
measurement_parameters: S. cerevisiae deletion strains, growth OD, locus YLR268W, strain sec22, hits give low values
In all, about 5,500 compounds went through this assay and about 2,000 (36%) were called active. Another 18% or so got no clear call; they are omitted. Some of the results follow.
property_label: normalized growth
Keep the answer to the number alone.

Here are 4 molecules together with their reported answers.
INSERT INTO assay_data (molecule, measured_number) VALUES
  ('CN1C2C[C@H](OC(=O)[C@H](CO)c3ccccc3)C[C@H]1[C@@H](O)C2', 0.995),
  ('CN(C)CCN(Cc1ccccc1)c1ccccn1', 0.985),
  ('CN1C2CCC1CC(OC(c1ccccc1)c1ccccc1N)C2 (stereo unspecified)', 1.01),
  ('COc1ccc(CN(CCN(C)C)c2ccccn2)cc1', 0.963);

QUERY: What measured normalized growth goes with O=C(O)c1cc2cc(F)ccc2[nH]1 ?
RESULT: 1.02

QUERY: Record request: normalized growth value, item CN1C2CCC1CC(OC(c1ccccc1)c1ccccc1)C2 (stereo unspecified)
RESULT: 0.96

---

assay: chemical genetic growth profiling, strain panel (AID 1159580);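 also: tested at 20 µM; growth read once vehicle control cultures reached saturation at 30 °C; 1 = growth at the plate median or of vehicle wells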
measurement_parameters: S. cerevisiae deletion strains, growth OD, locus YHR200W, strain rpn10, hits give low values
Among all 5,500 compounds or so, about 2,000 (36%) were called active. Roughly 18% stayed inconclusive and do not appear here. Some of the results follow.
Quick rule for you: normalized growth under 1 gets Fulfilled, anything else gets Not fulfilled.

Answered cases to consult:
INSERT INTO measurements (compound, qualitative_label) VALUES
  ('CCC[C@H](N[C@@H](C)C(=O)N1[C@H](C(=O)O)C[C@@H]2CCCC[C@@H]21)C(=O)OCC', 'Not fulfilled'),
  ('COc1ccc(-c2coc3cc(O)ccc3c2=O)cc1', 'Fulfilled'),
  ('COc1ccc(-c2coc3cc(OC)ccc3c2=O)cc1', 'Fulfilled'),
  ('CC1CCc2cc(F)cc3c(=O)c(C(=O)O)cn1c23 (centres undefined)', 'Fulfilled'),
  ('COc1ccc2c(c1)OC/C(=C/c1ccc(OC)c(OC)c1)C2=O', 'Fulfilled'),
  ('O=C(O)c1cc2cc(F)ccc2[nH]1', 'Not fulfilled'),
  ('COc1ccccc1-c1coc2cc(O)ccc2c1=O', 'Not fulfilled'),
  ('CCCCC[C@H]1C(=O)O[C@H](C)[C@H](NC(=O)c2cccc(NC=O)c2O)C(=O)O[C@@H](C)[C@@H]1OC(=O)CC(C)C', 'Fulfilled');

Continue with the compound presented below.
QUERY: Report whether reported normalized growth is lower than 1 (strictly) for C=CCc1ccc(OC(=O)c2ccccc2)c(OC)c1
RESULT: Fulfilled
